# EXPERIMENTAL DETAILS: Toxicity against Artemia salina
# Assay type: organism-based
# CONDITION LABEL: in vivo
READOUT TYPE: LC50 (µg/mL)
Kindly answer with a numeric value in µg/mL, unit omitted.

Which LC50 is listed for CC(C)=CC1Oc2cc(O)c(O)cc2-c2oc3cc(O)cc(O)c3c(=O)c21 (stereo unspecified) ?
15.1
